// values below are reported AC50
# System: TFEB
# protocol_summary: TFEB nuclear translocation assay, HeLa wt cells
# Type: cell-based
# test_context: Homo sapiens, HeLa, 2 h, 2 hrs compound treatment, Table 1 does not say HeLa wt or TRPML1 KO

molecule	AC50
CC1(C)CC2(CCN(c3ccccc3NS(=O)(=O)Cc3cccc(F)c3)CC2)CO1	2.01 to 8 µM
CN1CC2(CCN(c3ccccc3NS(=O)(=O)c3ccc(S(=O)(=O)N(C)C)cc3)CC2)C2NCCCC21 (stereo not shown)	≥ 10 µM
CN(C)S(=O)(=O)c1ccc(S(=O)(=O)Nc2ccccc2N2CCN(CC3CCCO3)CC2)cc1 (stereo not shown)	8.01 to 9.99 µM
CN(C)S(=O)(=O)c1ccc(S(=O)(=O)N(C)c2ccc(F)cc2N2CCC3(CC2)COC(C)(C)C3)cc1	2.01 to 8 µM
CN(C)S(=O)(=O)c1ccc(C(Nc2cccc(Cl)c2N2CCOCC2)C(F)(F)F)cc1 (stereo not shown)	8.01 to 9.99 µM
COCC1CCN(c2ccccc2NS(=O)(=O)c2ccc3c(c2)CC(C)(C)O3)CC1	≤ 2 µM

# next molecule below
**Query** For the molecule shown here, O=S1(=O)CCC2(CC1)CN(c1ccc(Cl)cc1NS(=O)(=O)c1ccc3c(c1)CCC3)CCO2 , give the reported AC50.
**Result** 2.01 to 8 µM

---

# System: TFEB
# protocol_summary: TFEB nuclear translocation assay, HeLa wt cells
# Assay type: cell-based
# test_context: Homo sapiens, HeLa, 2 h, 2 hrs compound treatment, Table 1 does not say HeLa wt or TRPML1 KO
// values below are reported AC50

Here are 4 compounds together with their reported answers.
compound	AC50
O=S(=O)(Nc1cccc(F)c1N1CCC(CN2C3COCC2C3)CC1)c1ccc2c(c1)CCC2	≥ 10 µM
CN(C)S(=O)(=O)c1ccc(S(=O)(=O)Nc2cccc(Cl)c2N2CCOCC2)cc1	2.01 to 8 µM
C[C@@H]1COC[C@@H](C)N1CC1CN(c2c(F)cccc2NS(=O)(=O)c2ccc(S(=O)(=O)N(C)C)cc2)C1 (stereo in doubt) [Compound A-915]	≥ 10 µM
CC(c1ccccc1N1CCN(Cc2ccccc2)CC1)S(=O)(=O)c1ccc(S(=O)(=O)N(C)C)cc1 (centres unmarked)	≤ 2 µM

**Query** Form: Entry = CN(C)S(=O)(=O)c1ccc(S(=O)(=O)Nc2nc(N3CCN(c4ccc(Cl)cc4F)CC3)nn2C)cc1 | System = TFEB | AC50 = ____
**Result** ≥ 10 µM

**Query** Form: Entry = O=S(=O)(Nc1ccccc1N1CCC(c2ccc(Cl)cc2F)CC1)c1cccc(F)c1F | System = TFEB | AC50 = ____
**Result** ≥ 10 µM

**Query** Form: Entry = COCC1CCN(c2ccccc2NS(=O)(=O)c2ccc(S(=O)(=O)N(C)C)cc2)CC1 | System = TFEB | AC50 = ____
**Result** ≤ 2 µM

**Query** Form: Entry = CC(c1cccc(C#N)c1N1CCC(CN2C[C@@H](C)O[C@@H](C)C2)CC1)S(=O)(=O)c1ccc(S(=O)(=O)N(C)C)cc1 (single isomer, unassigned) [Compound A-845] | System = TFEB | AC50 = ____
**Result** 2.01 to 8 µM

**Query** Form: Entry = O=S(=O)(Nc1cc(Cl)ccc1N1CCN(c2ccc(Cl)cc2F)CC1)c1ccc2c(c1)CCC2 | System = TFEB | AC50 = ____
**Result** ≤ 2 µM

**Query** Form: Entry = CS(=O)(=O)c1ccc(S(=O)(=O)Nc2ccccc2N2CCC3(CCO3)CC2)cc1 | System = TFEB | AC50 = ____
**Result** ≥ 10 µM

**Query** Form: Entry = CC(c1cccc(F)c1N1CCC(CN2C3CCC2COC3)CC1)S(=O)(=O)c1ccc(S(C)(=O)=O)cc1 (centres unmarked) | System = TFEB | AC50 = ____
**Result** 2.01 to 8 µM
